# measurement-target: Cdk10/CycQ (Homo sapiens, UniProt Q15131)
# Construct: We expressed the human full-length Cdk10/CycQ complex in Sf9 insect cells; MBP (followed by TEV site) (N, cleaved yes); c-MYC substrate from E. coli BL21 pLysS
# Sequence (Q15131 whole entry): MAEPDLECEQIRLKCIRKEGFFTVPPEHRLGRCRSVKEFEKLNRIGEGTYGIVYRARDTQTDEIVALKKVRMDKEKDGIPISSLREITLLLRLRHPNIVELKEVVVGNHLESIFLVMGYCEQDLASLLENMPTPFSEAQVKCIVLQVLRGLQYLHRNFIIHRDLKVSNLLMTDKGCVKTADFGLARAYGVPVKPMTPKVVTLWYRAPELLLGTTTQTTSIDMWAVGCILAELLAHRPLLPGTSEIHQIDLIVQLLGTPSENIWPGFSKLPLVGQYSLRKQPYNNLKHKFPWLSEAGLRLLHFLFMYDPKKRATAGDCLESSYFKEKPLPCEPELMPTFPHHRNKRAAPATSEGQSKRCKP
# Sequence (Q8N1B3 whole entry partner): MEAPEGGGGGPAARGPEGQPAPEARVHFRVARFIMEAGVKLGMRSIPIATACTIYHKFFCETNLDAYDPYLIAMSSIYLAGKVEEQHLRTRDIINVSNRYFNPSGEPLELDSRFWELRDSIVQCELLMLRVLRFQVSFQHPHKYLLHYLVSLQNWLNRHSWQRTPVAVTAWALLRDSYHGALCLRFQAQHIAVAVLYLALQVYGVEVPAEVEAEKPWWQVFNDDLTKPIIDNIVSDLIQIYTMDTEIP
# assay: Radiometric kinase assay, inhibition of Cdk10/CycQ (c-MYC substrate)
# experimental-parameters: 200 nM kinase, 1 mM ATP, 5 mM Mg2+, 50 µM c-MYC (17-167) as substrate
quantity: IC50
Answer as a quantity: numeral, then unit.

input: Which IC50 is listed for CCc1cnn2c(NCc3ccc[n+]([O-])c3)cc(N3CCCC[C@H]3CCO)nc12 [dinaciclib] ?
output: 298 nM

input: And the next one, Cc1cc(O)c(-c2ccc([C@@H](C)CN(C)C)cc2)c2c1[nH]c(=O)c1sccc12 [OTS964] ?
output: 5370 nM

input: What about COCC(C)NC1CCC(Nc2cc(-c3cccc(NCC4(C#N)CCOCC4)n3)c(Cl)cn2)CC1 (stereo not drawn) [NVP-2] ?
output: 1040 nM

---

# measurement-target: Cdk10/CycQ (Homo sapiens)
# Construct: We expressed the human full-length Cdk10/CycQ complex in Sf9 insect cells; MBP (followed by TEV site) (N, cleaved yes); made in house; host or cells: Sf9 insect cells (baculovirus); c-MYC substrate from E. coli BL21 pLysS
# assay: Radiometric kinase assay, inhibition of Cdk10/CycQ (c-MYC substrate)
# Format: biochemical
# experimental-parameters: ratio of IC50 values Cdk10 vs Cdk9
quantity: Times more potent towards Cdk9 than Cdk10

- compound: "CC(C)(C)c1cnc(CSc2cnc(NC(=O)C3CCNCC3)s2)o1"
  measurement: "at least 5 times"
- compound: "CN1CC[C@H](c2c(O)cc(O)c3c(=O)cc(-c4ccccc4Cl)oc23)[C@H](O)C1"
  measurement: "at least 5 times"
- compound: "CCc1cnn2c(NCc3ccc[n+]([O-])c3)cc(N3CCCC[C@H]3CCO)nc12"
  measurement: "at least 5 times"
- compound: "COCC(C)NC1CCC(Nc2cc(-c3cccc(NCC4(C#N)CCOCC4)n3)c(Cl)cn2)CC1 (stereo not shown)"
  measurement: "at least 5 times"
